The origin of these recorded values is patent US20040048369A1.

Target: IRK1 channels (Mus musculus, UniProt P35561)
Construct: expressed in transfected cells; host or cells: Xenopus laevis oocytes injected with IRK1 cRNA; inside-out patches
Sequence (P35561 whole entry): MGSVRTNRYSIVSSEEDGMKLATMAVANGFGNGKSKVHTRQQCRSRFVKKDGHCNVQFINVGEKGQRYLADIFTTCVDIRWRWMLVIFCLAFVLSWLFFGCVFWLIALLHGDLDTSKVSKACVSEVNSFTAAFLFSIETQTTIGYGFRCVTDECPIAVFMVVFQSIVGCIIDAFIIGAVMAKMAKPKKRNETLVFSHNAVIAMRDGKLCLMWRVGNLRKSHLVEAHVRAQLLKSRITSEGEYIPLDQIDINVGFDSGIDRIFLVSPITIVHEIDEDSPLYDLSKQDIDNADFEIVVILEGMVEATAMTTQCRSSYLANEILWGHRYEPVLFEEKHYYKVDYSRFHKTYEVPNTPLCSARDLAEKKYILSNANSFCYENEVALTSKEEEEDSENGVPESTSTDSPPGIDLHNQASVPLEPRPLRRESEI
Assay: Block of IRK1 currents by intracellular chemicals, inside-out patches of Xenopus oocytes injected with IRK1 cRNA
Type: cell-based
Conditions: intracellular blocker, Kd at 0 mV, mean±sem; read-out: Kd (0 mV), fit of the Woodhull equation
ASSAY_METRIC: Kd (µM)
Answer format: numeric, µM implied, no suffix.

[[record]]
compound = "C1CNCCN1 [piperazine]"
value_unit = "µM"
observed = 270


Req: State its Kd: OCCN1CCNCC1 [HEP, hydroxyethyl piperazine]
Resp: 2970
